test system: cocklebur; assay: Test B pre/postemergence cocklebur; format: in vivo, Xanthium strumarium; details: Postemergence, Rate 250 g/ha; scale 0 to 10, 0 is no effect, 10 is complete control
resultType: Plant response rating, Cocklebur

> print(dat)
                                   compound                        resulttype  measured
1  CC1CC1n1c(=O)on(C(=O)N(c2ccccc2)C(C)C)c1=O (stereo not shown) [Compound 370]  Plant response rating, Cocklebur         2
2  CC(C)N(C(=O)n1oc(=O)n(N2CCOCC2)c1=O)c1ccc(F)cc1 [Compound 385]  Plant response rating, Cocklebur         0
3  CC(C)N(C(=O)n1oc(=O)n(CC2(C)COC2)c1=O)c1ccccc1 [Compound 420]  Plant response rating, Cocklebur         0
4  CC(C)N(C(=O)n1oc(=O)n(CC2CCOC2)c1=O)c1ccc(F)cc1 (stereo not shown) [Compound 375]  Plant response rating, Cocklebur         0

Values from patent US6737383B1
